Recorded values, source paper PMC5159837.

ASSAYED_TARGET: Mtb GuaB2 (Mycobacterium tuberculosis)
Construct: made in house
Sequence (P9WKI7 whole entry, looked up): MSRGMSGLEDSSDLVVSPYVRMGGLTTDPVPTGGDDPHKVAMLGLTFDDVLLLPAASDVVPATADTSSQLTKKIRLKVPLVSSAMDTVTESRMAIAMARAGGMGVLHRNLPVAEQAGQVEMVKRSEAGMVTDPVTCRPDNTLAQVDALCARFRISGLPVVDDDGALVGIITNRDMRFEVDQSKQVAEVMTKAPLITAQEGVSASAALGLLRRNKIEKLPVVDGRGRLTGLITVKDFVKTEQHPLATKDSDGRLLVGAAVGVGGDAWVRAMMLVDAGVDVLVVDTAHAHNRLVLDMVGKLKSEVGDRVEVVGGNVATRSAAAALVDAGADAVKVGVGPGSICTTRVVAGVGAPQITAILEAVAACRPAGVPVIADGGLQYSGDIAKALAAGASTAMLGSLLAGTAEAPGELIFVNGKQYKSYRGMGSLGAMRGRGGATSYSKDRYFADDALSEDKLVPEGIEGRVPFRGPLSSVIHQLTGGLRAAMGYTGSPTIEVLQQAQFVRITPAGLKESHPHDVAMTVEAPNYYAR
ASSAY_OVERVIEW: Biochemical assay of GuaB2 inhibition
CONDITIONS: 0.1 mM compound, 12 μg GuaB2, 0.5% CHAPS; duplicate, mean; read-out: % Biochemical Inhibition of Mtb GuaB2
ATTRIBUTE_MEASURED: inhibition at 100 µM (%)
Report only the number, with the unit % understood.

Recorded inhibition at 100 µM, per entry:
>>> df
                                   compound                          assayed_target  unit_abbreviation  reading
0  Cc1ccc([N+](=O)[O-])cc1NC(=O)Nc1cccc(Cl)c1 [DPU-2, reference compound]  Mtb GuaB2 (Mycobacterium tuberculosis)                  %     44.6
1  COC(=O)c1c(NC(=O)N2CCNCC2)sc2c1CC(C)(C)OC2  Mtb GuaB2 (Mycobacterium tuberculosis)                  %     21.8
2  CC(=O)Nc1ccc(-c2ccc3ncc(N4CCN(C)CC4)nc3c2)cn1  Mtb GuaB2 (Mycobacterium tuberculosis)                  %     23.1
3    CC(C)CCN(c1ccc(C#N)c(Cl)c1)[C@H]1CCNC1  Mtb GuaB2 (Mycobacterium tuberculosis)                  %     20.6
4     COc1ccc(Cl)c2sc(N(CCN(C)C)C(C)=O)nc12  Mtb GuaB2 (Mycobacterium tuberculosis)                  %     20.7

Alright, here's another compound for you.
[Q] Data request, read-out inhibition at 100 µM, for CC1CCC(NC(=O)Nc2ccc3snnc3c2)CC1 (stereo not drawn)
[A] 12.2

---

IC50 values, listed per item
Test system: M. bovis BCG pMV261
ASSAY_OVERVIEW: microbe, parasite or virus in culture
Format: cell-based
CONDITIONS: Mycobacterium tuberculosis variant bovis BCG, 168 h, read-out: pXC50 for Empty Vector (converted)
The reply should contain only the number, in µM.

Study these solved cases before continuing.
>>> print(df.to_string())
                                   compound  attribute_measured  unit_abbreviation  reading
0    CC(C)CCN(c1ccc(C#N)c(Cl)c1)[C@H]1CCNC1                IC50                 µM     4.37
1  CC1CCC(NC(=O)Nc2ccc3snnc3c2)CC1 (stereo not shown)                IC50                 µM     4.17
2  CC(=O)Nc1ccc(-c2ccc3ncc(N4CCN(C)CC4)nc3c2)cn1                IC50                 µM     8.91

[Q] # lookup: IC50 of Clc1cc2ccccc2c(N2CCNCC2)n1
[A] 3.8

[Q] Field request: IC50 | item: CCOc1ccc(C(=O)Nc2cc(Cl)c3c(c2)CNCC3)cc1C(C)=O
[A] 8.32

[Q] Item COC(=O)c1c(NC(=O)N2CCNCC2)sc2c1CC(C)(C)OC2 has what recorded IC50?
[A] 10.2

[Q] Data request, read-out IC50, for COc1ccc(Cl)c2sc(N(CCN(C)C)C(C)=O)nc12
[A] 22.9
